System: CD4 T cells co-cultured with autologous DCs from PBMCs
Type: cell-based, human
Assay Context: DR7 donors N=4; positive = Stimulation Index ≥1.5-fold above baseline; ICCS, 5 µg/mL peptide
Each record here notes measured Percentage of donors demonstrating IL-10 responses, DR7.
Experimental Endpoint: Percentage of donors demonstrating IL-10 responses, DR7 (%)

| Entry Sequence | Result |
| --- | --- |
| DKHIEKYLKRIQNSLSTEWS [ICS9] | 0 |
| DQHIEQYLKTIQNSLSTEWS [ICS4] | 0 |
| IKKYLKKIKNSISTEWSPCS [ICS6] | 50 |
| DQHIEQYLKKIQNSISTEWS [ICS3] | 0 |
| DQHIEKYLKTIKNSLSTEWS [ICS10] | 25 |

====

Each record here notes measured Percentage of donors demonstrating IL-2 responses, DR9.
System: CD4 T cells co-cultured with autologous DCs from PBMCs
Type: cell-based, human
Assay Context: DR9 donors N=4; positive = Stimulation Index ≥1.5-fold above baseline; ICCS, 5 µg/mL peptide
Experimental Endpoint: Percentage of donors demonstrating IL-2 responses, DR9 (%)

| Entry Sequence | Units Of Measure | Result |
| --- | --- | --- |
| DQHIEQYLKKIQNSISTEWS [ICS3] | % | 0 |
| IKKYLKKIKNSISTEWSPCS [ICS6] | % | 50 |
| DQHIEQYLKTIQNSLSTEWS [ICS4] | % | 0 |
| DKHIEKYLKRIQNSLSTEWS [ICS9] | % | 50 |
| DQHIEKYLKTIKNSLSTEWS [ICS10] | % | 25 |

====

Tested System: HLA B*4402 (Homo sapiens, UniProt P01889, A223V/A65T/A93T/A95T/D201E/D98Y/E176V/E187L/E204Q/E69K/G107R/H137Y/K202T/L105A/L119I/N104T/N87E/Q56L/Q94N/R106L/R155S/R180D/S101N/S121R/S35A/S48T/T118I/V36M/W191S/Y140D/Y91S)
Assay Method Text: In vitro class I HLA binding competition assay (fluorescence polarization)
Assay Context: allele B4402; cell-free competition with fluorescently labeled control peptide, fluorescence polarization at 72 hours
Peptide text beside a SMILES is read from it.
Each record here notes measured IC50.
Experimental Endpoint: IC50 (µM)

| Compound | Experimental Endpoint | Result |
| --- | --- | --- |
| CC[C@H](C)[C@H](N)C(=O)N[C@@H](CCC(=O)O)C(=O)N[C@@H](CCC(N)=O)C(=O)N[C@@H](Cc1ccc(O)cc1)C(=O)N[C@@H](CC(C)C)C(=O)N[C@@H](CCCCN)C(=O)N[C@@H](CCCCN)C(=O)N[C@H](C(=O)N[C@@H](CCC(N)=O)C(=O)N[C@@H](Cc1ccc(O)cc1)C(=O)O)[C@@H](C)CC [Cluster 316_ICS7] (H-IEQYLKKIQY-OH) | IC50 | 157 |
| CC[C@H](C)[C@H](N)C(=O)N[C@@H](CCC(N)=O)C(=O)N[C@@H](CC(N)=O)C(=O)N[C@@H](CO)C(=O)N[C@@H](CC(C)C)C(=O)N[C@@H](CO)C(=O)N[C@H](C(=O)N[C@@H](CCC(=O)O)C(=O)N[C@@H](Cc1c[nH]c2ccccc12)C(=O)O)[C@@H](C)O [Cluster 323_3D7] (H-IQNSLSTEW-OH) | IC50 | 136 |
| C[C@H](NC(=O)[C@H](CC(N)=O)NC(=O)[C@H](CC(N)=O)NC(=O)[C@H](C)NC(=O)[C@H](CC(N)=O)NC(=O)[C@H](C)NC(=O)[C@H](CC(N)=O)NC(=O)[C@H](CCC(=O)O)NC(=O)[C@@H](N)CC(=O)O)C(=O)O [Cluster 294_CVX311] (H-DENANANNA-OH) | IC50 | 896 |
| CSCC[C@H](N)C(=O)N[C@@H](CCC(=O)O)C(=O)N[C@@H](CCCCN)C(=O)N[C@@H](CS)C(=O)N[C@@H](CO)C(=O)N[C@@H](CO)C(=O)N[C@H](C(=O)N[C@@H](Cc1ccccc1)C(=O)N[C@@H](CC(N)=O)C(=O)O)C(C)C [Cluster 371_3D7] (H-MEKCSSVFN-OH) | IC50 | 143 |

====

System: CD4 T cells co-cultured with autologous DCs from PBMCs
Assay type: cell-based, human
Assay Context: DR4 donors N=10; positive = Stimulation Index ≥1.5-fold above baseline; ICCS, 5 µg/mL peptide
Experimental Endpoint: Percentage of donors demonstrating IL-2 responses, DR4 (%)

| Entry Sequence | Tested System | Units Of Measure | Result |
| --- | --- | --- | --- |
| IKKYLKKIKNSISTEWSPCS [ICS6] | CD4 T cells co-cultured with autologous DCs from PBMCs | % | 30 |
| DQHIEQYLKKIQNSISTEWS [ICS3] | CD4 T cells co-cultured with autologous DCs from PBMCs | % | 40 |
| DQHIEQYLKTIQNSLSTEWS [ICS4] | CD4 T cells co-cultured with autologous DCs from PBMCs | % | 20 |
| DQHIEKYLKTIKNSLSTEWS [ICS10] | CD4 T cells co-cultured with autologous DCs from PBMCs | % | 30 |
| DKHIEKYLKRIQNSLSTEWS [ICS9] | CD4 T cells co-cultured with autologous DCs from PBMCs | % | 50 |

====

System: CD4 T cells co-cultured with autologous DCs from PBMCs
Type: cell-based, human
Assay Context: DR8 donors N=4; positive = Stimulation Index ≥1.5-fold above baseline; ICCS, 5 µg/mL peptide
Experimental Endpoint: Percentage of donors demonstrating TNF-α responses, DR8 (%)

| Entry Sequence | Tested System | Result |
| --- | --- | --- |
| DQHIEQYLKTIQNSLSTEWS [ICS4] | CD4 T cells co-cultured with autologous DCs from PBMCs | 0 |
| DKHIEKYLKRIQNSLSTEWS [ICS9] | CD4 T cells co-cultured with autologous DCs from PBMCs | 100 |
| DQHIEKYLKTIKNSLSTEWS [ICS10] | CD4 T cells co-cultured with autologous DCs from PBMCs | 0 |
| DQHIEQYLKKIQNSISTEWS [ICS3] | CD4 T cells co-cultured with autologous DCs from PBMCs | 25 |
| IKKYLKKIKNSISTEWSPCS [ICS6] | CD4 T cells co-cultured with autologous DCs from PBMCs | 0 |

====

Test system: CD4 T cells co-cultured with autologous DCs from PBMCs
Type: cell-based, human
Assay Context: DR13 donors N=7; positive = Stimulation Index ≥1.5-fold above baseline; ICCS, 5 µg/mL peptide
Experimental Endpoint: Percentage of donors demonstrating TNF-α responses, DR13 (%)

| Entry Sequence | Result |
| --- | --- |
| DQHIEKYLKTIKNSLSTEWS [ICS10] | 14 |
| IKKYLKKIKNSISTEWSPCS [ICS6] | 43 |
| DQHIEQYLKTIQNSLSTEWS [ICS4] | 0 |
| DQHIEQYLKKIQNSISTEWS [ICS3] | 14 |
| DKHIEKYLKRIQNSLSTEWS [ICS9] | 57 |

====

Test system: CD4 T cells co-cultured with autologous DCs from PBMCs
Type: cell-based, human
Assay Context: DR8 donors N=4; positive = Stimulation Index ≥1.5-fold above baseline; ICCS, 5 µg/mL peptide
Experimental Endpoint: Percentage of donors demonstrating IL-2 responses, DR8 (%)

| Entry Sequence | Result |
| --- | --- |
| DKHIEKYLKRIQNSLSTEWS [ICS9] | 75 |
| DQHIEQYLKTIQNSLSTEWS [ICS4] | 0 |
| IKKYLKKIKNSISTEWSPCS [ICS6] | 0 |
| DQHIEKYLKTIKNSLSTEWS [ICS10] | 0 |
| DQHIEQYLKKIQNSISTEWS [ICS3] | 0 |

====

Test system: CD4 T cells co-cultured with autologous DCs from PBMCs
Assay type: cell-based, human
Assay Context: DR4 donors N=10; positive = Stimulation Index ≥1.5-fold above baseline; ICCS, 5 µg/mL peptide
Each record here notes measured Percentage of donors demonstrating IL-10 responses, DR4.
Experimental Endpoint: Percentage of donors demonstrating IL-10 responses, DR4 (%)

| Entry Sequence | Result |
| --- | --- |
| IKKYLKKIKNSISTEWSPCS [ICS6] | 30 |
| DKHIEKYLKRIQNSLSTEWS [ICS9] | 10 |
| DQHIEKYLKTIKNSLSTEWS [ICS10] | 10 |
| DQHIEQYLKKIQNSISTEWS [ICS3] | 0 |
| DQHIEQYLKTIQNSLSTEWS [ICS4] | 10 |

====

Each record here notes measured Percentage of donors demonstrating TNF-α responses, DR11.
Test system: CD4 T cells co-cultured with autologous DCs from PBMCs
Format: cell-based, human
Assay Context: DR11 donors N=4; positive = Stimulation Index ≥1.5-fold above baseline; ICCS, 5 µg/mL peptide
Experimental Endpoint: Percentage of donors demonstrating TNF-α responses, DR11

| Entry Sequence | Result |
| --- | --- |
| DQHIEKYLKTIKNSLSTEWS [ICS10] | 25% |
| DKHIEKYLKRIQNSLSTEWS [ICS9] | 75% |
| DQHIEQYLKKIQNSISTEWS [ICS3] | 50% |
| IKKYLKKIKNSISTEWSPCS [ICS6] | 50% |
| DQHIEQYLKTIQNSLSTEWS [ICS4] | 0% |
